All values here come from PubChem BioAssay.

Molecular target: Albumin (Bos taurus)
Assay: bovine serum albumin binders on microarray, profiling panel, artefact control for SMM control protein annotation, biochemical, small-molecule microarray, Alexa647 label, 635/667 nm fluorescence (AID 1118);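 further: score merges 667 nm emission intensity and signal-to-noise per printed compound spot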
Conditions: BSA-A647 binding, fluorescence 635 nm, higher = more signal
Reported property: composite z-score
// return just the number, without any unit appended

// known answers, use as guide
Molecule | Test system | Measured
COC(=O)c1c(CC[C@@H](CO)NC(=O)N2CCC[C@H]2Cn2cc(Cc3ccccc3)nn2)oc(C(C)=O)c1C(=O)OC | Albumin (Bos taurus) | 0.0832
COc1ccc([Si](C)(C)[C@@H]2[C@@H](CC(=O)N3Cc4ccccc4C[C@H]3CO)O[C@]3(C(=O)N(Cc4cccc(N5C(=O)c6cccc7cccc5c67)c4)c4ccccc43)[C@H]2C)cc1 | Albumin (Bos taurus) | -0.566

For the molecule "COC(=O)[C@@]1(Cc2ccc(F)cc2)[C@H]2c3cc(C(=O)N4CCCC4)n(CCc4ccc(O)c(O)c4)c3C[C@H]2CN1C(=O)c1ccccc1" , what composite z-score is on record?
0.601

For the molecule "C=CCNC(=O)[C@@H]1[C@H]2C(=O)O[C@H](c3ccccc3)[C@H](c3ccccc3)N2[C@H](c2ccc(O)cc2)[C@@]12C(=O)N(C(=O)OCCOC)c1ccc(C#CC3(O)CCCCCC3)cc12" , what composite z-score is on record?
-0.632

For the molecule "CCOC(=O)C[C@H]1[C@H](OC(=O)c2cc3ccccc3oc2=O)[C@@H](NC(=O)c2ccc(-c3ccccc3)cc2)c2cc(OCCCO)ccc2N1C(=O)c1ccc2ccccc2n1" , what composite z-score is on record?
0.111

For the molecule CCOC(=O)C1CCCCN1 (stereo unspecified) , what composite z-score is on record?
0.351

----------
Assay: binders of probe aHhip on microarray, primary screen, stem cell growth factor project, biochemical, small-molecule microarray, fluorescence 635/667 (AID 1087);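 further: score merges spot fluorescence at 667nm with spot signal to noise ratio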
Details: higher = more signal
Consider the following molecules and their measured composite z-score readings.

Molecule | Measured
C=C(C)C1CCC(C(O)C2C=CC3C(=O)N(C)C(=O)C3N2N2CCCCC2)CC1 (stereo not given) | 0.134
CC(C)Cc1ccc(CN2CC[C@@H](NC(=O)Nc3ccccc3)C2)cc1 | 0.0505
COc1ccc(CCNC(=O)[C@@H]2c3ccccc3C(=O)N(Cc3cc(C(F)(F)F)cc(C(F)(F)F)c3)[C@H]2c2ccc(CO)cc2)cc1 | -0.236
O=C1O[C@@H](c2ccccc2)[C@@H](c2ccccc2)N2[C@@H](c3ccc(O)cc3)[C@]3(C(=O)Nc4ccc(C#CC5=CCCCC5)cc43)[C@@H](C(=O)NC[C@H](O)c3ccccc3)[C@H]12 | 0.251
COC(=O)C1=CC(CCCO)=CC(C2CC2)N(C)C=C1C(=O)OC (stereo not given) | -0.0994
COC(=O)[C@@]1(Cc2ccc(F)cc2)[C@H]2c3cc(C(=O)N4CCCC4)n(CCc4ccc(O)c(O)c4)c3C[C@H]2CN1C(=O)c1ccccc1 | 2.44
CCCCCCCCCCC(O)C1C=CC2C(=O)N(C)C(=O)C2N1Nc1ccc([N+](=O)[O-])cc1[N+](=O)[O-] (stereo not given) | -0.0994
C=C(C)c1cc2c(c(CCCCCC)n1)[Si](C(C)C)(C(C)C)OC2 | 0.0201
COC(=O)[C@@]1(Cc2ccc(OC)cc2)[C@@H]2C(=CC(=O)[C@H]2CC(=O)C(=O)N(C)C)CN1C(=O)c1ccccc1 | 0.177
CCOC(=O)[C@H]1[C@@H]2C(=O)N3CCC[C@H]3[C@H](O[Si](C(C)C)(C(C)C)C(C)C)[C@H]2C=C2CCN(S(=O)(=O)c3ccc(C)cc3)C[C@H]21 | -0.164

For the molecule "O=C1N(Cc2ccccc2)c2ccccc2[C@@H]2OC(c3ccc(OCCCO)cc3)=N[C@]12Cc1ccccc1" , what composite z-score is on record?
0.113
